Please respond with reported TGI for every item in the list.
# Test system: SW-620 colon
# assay-explanation: NCI tumour cell line growth inhibition, 48 h

The cases that follow already have their TGI on record.
Problem: What TGI value was documented for this compound, `CCCCCCc1cc(C(=O)Nc2cccc(C(F)(F)F)c2)nc(N)n1` ?
Solution: > 100 µM

Problem: What TGI value was documented for this compound, `CNC(=O)OCc1c(COC(=O)NC)c(C)n(-c2ccc(Br)cc2)c1C` ?
Solution: 27.3 µM

Problem: What TGI value was documented for this compound, `O=C(Cn1c2c(c3ccccc31)CCCC2)NC1CCCCC1` ?
Solution: > 100 µM

Alright, here's another compound for you.
Problem: What TGI value was documented for this compound, CC(=O)OC1C(O)COC(O[C@H]2CC[C@]34C[C@]35CC[C@]3(C)C([C@@]6(C)CC[C@@H](C(C)(C)O)O6)[C@@H](O)C[C@@]3(C)C5C[C@H](OC3OCC(O)C(O)C3O)[C@H]4C2(C)C)C1OC1OCC(O)C(O)C1O (some centres undefined) ?
Solution: > 100 µM

====

# Test system: PC-3 prostate
# assay-explanation: NCI tumour cell line growth inhibition, 48 h; in the data active means GI50 below about 0.43 µM; inactive means the rest
Returns: one label drawn from active, inactive

A selection of reference data follows.
Problem: Answer briefly: the call reported for `N#Cc1c(N/N=C/c2c(Cl)cccc2Cl)nc(N)nc1N1CCOCC1` in this assay.
Solution: inactive

Problem: Answer briefly: the call reported for `COc1cc2c(c(OC)c1OC)-c1ncc3cc(OC)c(OC)c(OC)c3c1C2` in this assay.
Solution: inactive

Problem: Answer briefly: the call reported for `CN(C)c1ccc2c(c1)Sc1cc(N(C)C)ccc1N2C(=O)c1ccccc1` in this assay.
Solution: inactive

Problem: Answer briefly: the call reported for `Cc1cc(N/N=C/c2nc(-c3ccc(Br)cc3)oc2C)c2cc(Cl)ccc2n1` in this assay.
Solution: inactive

Problem: Answer briefly: the call reported for `COc1cc2nc(N3CCCC3)nc(NCC3CCCCC3)c2cc1OC` in this assay.
Solution: inactive

Problem: Answer briefly: the call reported for `Nc1ncnc2[nH]ncc12` in this assay.
Solution: inactive

Problem: Answer briefly: the call reported for `O[C@H]1CO[C@H]2[C@@H]1OC[C@@H]2Oc1ccc(Nc2ccnc(Nc3ccc(O[C@H]4CO[C@H]5[C@@H]4OC[C@@H]5O)c(Cl)c3)n2)cc1Cl` in this assay.
Solution: inactive

Problem: Answer briefly: the call reported for `O=C1c2c(c3c4ccccc4[nH]c3c3ccc4ccccc4c23)C(=O)N1CCN1CCCCC1` in this assay.
Solution: inactive

Problem: Answer briefly: the call reported for `O=C1c2ccccc2-c2c1c1ccc([N+](=O)[O-])cc1c(=O)n2CCCBr` in this assay.
Solution: inactive

Problem: Answer briefly: the call reported for CC1=C(CCC(C)N(C)Cc2ccc(OCCCN3CCCC3)cc2)C(C)(C)CCC1 (configuration not stated) in this assay.
Solution: inactive

---
Problem: Answer briefly: the call reported for `O=C(/C(=C/c1ccccc1)CN1CCCCC1)c1ccccc1` in this assay.
Solution: inactive

Problem: Answer briefly: the call reported for C=CC(=O)N(C)[C@H]1C[C@H]2OC(C)(C1OC)n1c3ccccc3c3c4c(c5c6ccccc6n2c5c31)C(=O)NC4 (some centres not stated) in this assay.
Solution: active

Problem: Answer briefly: the call reported for `O=c1[nH]c2ccccc2nc1-c1c[nH]c2ccccc12` in this assay.
Solution: inactive

Problem: Answer briefly: the call reported for `C=C1CC[C@@H]2[C@](C)(COC(C)=O)[C@@H](O)CC[C@@]2(C)[C@@H]1COc1ccc2ccc(=O)oc2c1` in this assay.
Solution: inactive

Problem: Answer briefly: the call reported for `Clc1cc(Cl)c(OCC#CI)cc1Cl` in this assay.
Solution: inactive

Problem: Answer briefly: the call reported for `COc1ccc2cc(-c3ccoc(=O)c3-c3cc(OC)c(OC)c(OC)c3)ccc2c1` in this assay.
Solution: active

Problem: Answer briefly: the call reported for `COc1cc2c(cc1OCCCCOc1cc3c(cc1OC)C(=O)N1CCC[C@H]1CN3)N=C[C@@H]1CCCN1C2=O` in this assay.
Solution: inactive
